Assay: Plasma clearance in rat at 15 umol/kg, po
Format: ADME, organism-based
Property: CL/F (mL/min/kg)
Write the answer as a number in mL/min/kg, unit excluded.

For the compound `CC(C)(N)C(=O)N[C@H](COCc1ccccc1)c1nnnn1CCOC(=O)NCCCCO` , what CL/F is on record? 213

----------
Biological target: Growth hormone secretagogue receptor type 1 (Homo sapiens, UniProt Q92847)
Sequence (Q92847 whole entry): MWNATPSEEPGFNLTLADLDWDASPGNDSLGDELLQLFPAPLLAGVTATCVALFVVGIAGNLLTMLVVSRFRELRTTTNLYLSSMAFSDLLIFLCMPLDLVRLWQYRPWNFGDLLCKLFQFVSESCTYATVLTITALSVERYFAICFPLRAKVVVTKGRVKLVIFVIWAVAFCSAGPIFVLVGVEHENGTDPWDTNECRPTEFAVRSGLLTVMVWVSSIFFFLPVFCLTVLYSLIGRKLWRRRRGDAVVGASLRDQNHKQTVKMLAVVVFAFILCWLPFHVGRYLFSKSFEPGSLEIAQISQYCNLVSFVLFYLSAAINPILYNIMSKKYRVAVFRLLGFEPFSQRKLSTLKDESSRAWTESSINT
Assay: Intrinsic activity at human GHS receptor in H4 glioma cells assessed by measuring intracellular calcium concentration by FLIPR assay
Property: pEC50
In simple prose, pEC50 is minus the logarithm base ten of a concentration in moles per litre.

Please review the entries below; each comes with its answer.
CC(C)(N)C(=O)N[C@H](COCc1ccccc1)c1nnnn1CCOC(=O)NCCCCCO; 7.84
CC(C)(N)C(=O)N[C@H](COCc1ccccc1)c1nnnn1CCOC(=O)NC[C@H]1CCCO1; 8.02

Now let's try a different one.
Query: pEC50; subject: `CC(C)(N)C(=O)N[C@H](COCc1ccccc1)c1nnnn1CCOC(=O)NCCc1cccc(O)c1` 8.10
